EXPERIMENTAL ENDPOINT: melting point

> print(dat)
                                    molecule    test.result
 1                 C=CCN1C(=O)CSC1=NOC(=O)NC  108 to 110 °C
 2  Cc1[nH]cnc1CSCCNc1ncc(Cc2ccn(C)c(=O)c2)c(=O)[nH]1  202 to 204 °C
 3             COc1cc(O)c2c(c1O)CC(C)=C(C)C2  200 to 201 °C
 4  O=C(OCc1ccc(F)cc1)c1cccc(C(=O)OCc2ccc(F)cc2)c1    78 to 79 °C
 5  CC(Nc1nnc(-c2ccsc2)c2ccccc12)c1ccccc1 (stereo unspecified)  144 to 146 °C
 6  OC(c1ccccc1)C1CCN(CCCc2ccccc2)CC1 (stereo unspecified)    87 to 88 °C
 7  CCOC(=O)C(CC)c1ccc(N2Cc3ccccc3C2=N)cc1 (stereo unspecified)  157 to 159 °C
 8               CCOC(=O)c1[nH]nnc1Nc1ccccc1  129 to 130 °C
 9          CCNC(=C[N+](=O)[O-])NCCSCc1nccs1  115 to 116 °C
10                   O=C(CBr)c1ccc(O)c(CO)c1  117 to 119 °C

Tell me the measured melting point of CC(=O)CCC(C)C1CC=C2C3=C(CCC21C)C1(C)CCC(O)C(C)(C)C1CC3 (stereo unspecified) , please. 183 to 185 °C

Return reported melting point; argument: CC12CCC(C(=O)Nc3ccccc3C(c3ccc(O)cc3)c3ccc(O)cc3)(OC1=O)C2(C)C (stereo unspecified) 229 to 231 °C

Return reported melting point; argument: CC(C)(C)CCCOC1CCC2C3C(=O)C=C4CC(O)CCC4(C)C3CCC12C (stereo unspecified) 203 to 205 °C

====

Each entry below lists one item and its recorded melting point value.

> print(dat)
                                   compound    test.result
1  COc1cc(CNc2nc(NCCc3ccccn3)nc3ncccc23)cc(OC)c1  157 to 158 °C
2  CN1CC(CCCl)Oc2ncc(-c3ccccc3)cc2C1=S (centres undefined)  156 to 158 °C
3                CCOC(=O)COc1cc(C(=O)OC)on1    66 to 67 °C
4                 CCOC(=O)Nc1csc2cc(O)ccc12  159 to 160 °C

State the recorded melting point for this entry: CC(C)CC(=O)Nc1cc(-c2ccnc3c(C(=O)c4cccs4)cnn23)ccc1F 192 to 194 °C

====

Reported melting point values are given for each entry in this list.

Examples with their reported melting point follow.
> print(dat)
                                   compound    test.result
1  COc1ccccc1-n1c(=O)[nH]c2c(C(N)=O)nc(Nc3ccccc3O)nc21  314 to 315 °C
2  Cc1[nH]c(=O)c(C#N)c2c1CC(c1ccccc1)CC2 (configuration not stated)       > 290 °C
3     Cc1cc(C)c(-n2c(C)cc(C)c(C#N)c2=O)cc1N  218 to 219 °C
4                COc1cccc2sc(C(N)=O)c(N)c12  151 to 153 °C
5    CCCN(CCC)C(=O)n1cnc(S(=O)(=O)CC(C)C)n1  62 to 63.5 °C

What measured melting point goes with COc1nnc(C)c(-c2ccc(SC)cn2)c1-c1ncc(Cl)cc1Cl ? 147 to 149 °C

Sample Nc1cc(S(=O)(=O)c2ccccc2)c([N+](=O)[O-])c2cccnc12 — what was its melting point? 211 to 213 °C
